measuredTarget: T1, hSPSB1(24–233) (human, UniProt Q96BD6 24-233)
T1 construct: human SPSB1 lacking the SOCS box region, residues 24-233; also called human SPSB1 SPRY domain; source: E. coli BL21(DE3)-R3-pRARE2, purified (Ni-Sepharose, TEV cleavage, size-exclusion, anion exchange); not shown: His6, N-terminal, cleaved
T1 sequence (looked up): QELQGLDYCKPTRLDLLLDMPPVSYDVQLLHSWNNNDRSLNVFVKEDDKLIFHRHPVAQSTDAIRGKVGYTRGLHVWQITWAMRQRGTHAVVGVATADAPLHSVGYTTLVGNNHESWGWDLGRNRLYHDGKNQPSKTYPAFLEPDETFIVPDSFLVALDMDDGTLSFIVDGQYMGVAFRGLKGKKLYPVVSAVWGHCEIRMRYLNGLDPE
protocolText: ITC; 100 μM peptide titrated into 10 μM hSPSB protein; 20 °C; 50 mM Hepes pH 7.4, 150 mM NaCl, 1 mM DTT (hSPSB1) or 0.5 mM TCEP (hSPSB2, hSPSB4); single binding site model
appliedConditions: both partners purified
readoutLabel: pKd
In plain terms, pKd is the concentration in mol/L turned into minus its base-10 logarithm.

pKd recorded for this binder, NELNNNLPGGAPAAP (human prostate apoptosis response protein-4 (hPar-4), residues 67-81; source: synthetic peptide (ThermoElectron GmbH)) [hPar-4(67–81)] , is 6.82
